System: 616215-338-R-J1-PDC tumor spheroids, viability;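 note: spheroids exposed to agents for 7 days before readout; percent viability relative to DMSO vehicle control wells taken as 100%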
RUN DESCRIPTION: Anticancer human tumor 616215-338-R-J1-PDC patient-derived colon adenocarcinoma cell line growth inhibition [GQUAD]
CONDITIONS USED: second compound 0.316 µM; first compound 0.316 µM; stronger effect = lower value; spheroids with HUVEC and MSC
Threshold 40%: viability, T/C strictly smaller gives class 1, otherwise class 0.

(Q) I wonder whether COc1cccc2c1C(=O)c1c(O)c3c(c(O)c1C2=O)CC(O)(C(=O)CO)CC3OC1CC(N)C(O)C(C)O1 (stereo not given) + Cc1cnc(CNC(=O)c2c(=O)c3ccc(N4CCCN(C)CC4)nc3n3c2sc2ccccc23)cn1 has viability, T/C below 40%. Can you tell?
(A) class 1

(Q) I wonder whether CC(C)(O)C1CCC(Nc2ccc3ncc(-c4cccc(C(F)(F)F)c4)n3n2)CC1 (stereo not given) + Cc1cnc(CNC(=O)c2c(=O)c3ccc(N4CCCN(C)CC4)nc3n3c2sc2ccccc23)cn1 has viability, T/C below 40%. Can you tell?
(A) class 1

(Q) I wonder whether C=CCn1c(=O)c2cnc(Nc3ccc(N4CCN(C)CC4)cc3)nc2n1-c1cccc(C(C)(C)O)n1 + CN(C)c1ccc(Nc2c3ccc(NC(=O)CCN4CCCC4)cc3nc3cc(NC(=O)CCN4CCCC4)ccc23)cc1 has viability, T/C below 40%. Can you tell?
(A) class 0

(Q) I wonder whether CC[C@@]1(O)C(=O)OCc2c1cc1n(c2=O)Cc2cc3c(CN(C)C)c(O)ccc3nc2-1 + CN(C)c1ccc(Nc2c3ccc(NC(=O)CCN4CCCC4)cc3nc3cc(NC(=O)CCN4CCCC4)ccc23)cc1 has viability, T/C below 40%. Can you tell?
(A) class 1

(Q) I wonder whether COc1ncnc(C2CC2)c1-c1ncc2cnn(Cc3ccc(-c4nc(C(F)(F)F)cn4C(C)C)cc3)c2n1 + CN(C)c1ccc(Nc2c3ccc(NC(=O)CCN4CCCC4)cc3nc3cc(NC(=O)CCN4CCCC4)ccc23)cc1 has viability, T/C below 40%. Can you tell?
(A) class 0
